System: human red blood cells (RBCs)
Assay: Hemolysis assay
Assay type: cell-based
Conditions: red cells of human, 1 h, 1
Description: The hemolytic activity of the peptides was determined using fresh human red blood cells (RBCs) collected from a healthy human donor according to the procedure described in the literature. […] After centrifugation, the supernatant was carefully […] to new microtiter plates and the release of hemoglobin was measured at 540 nm (Multiskan™ GO Microplate Spectrophotometer, Thermo Scientific). […]
Where a SMILES comes first, the peptide text is derived from it.
The entries below come with measured Percentage of hemolysis at 1 μg/mL values attached.
Just the number please, in %, no unit attached.

>>> reported_measurement("CC[C@H](C)[C@H](NC(=O)[C@H](CC(=O)O)NC(=O)[C@H](Cc1ccccc1)NC(=O)[C@H](CC(C)C)NC(=O)CN)C(=O)N[C@H](C(=O)N[C@@H](CCCCN)C(=O)N[C@@H](CCCCN)C(=O)N[C@@H](C)C(=O)N[C@@H](C)C(=O)N[C@@H](CCC(=O)O)C(=O)N[C@@H](CO)C(=O)N[C@@H](Cc1ccccc1)C(N)=O)[C@@H](C)CC [Peptide I9A] (H-GLFDIIKKAAESF-NH2)")
0.6

Q: Lab note: need Percentage of hemolysis at 1 μg/mL for CC[C@H](C)[C@H](NC(=O)[C@H](CCCCN)NC(=O)[C@H](CCCCN)NC(=O)[C@@H](NC(=O)[C@@H](NC(=O)[C@H](CC(=O)O)NC(=O)[C@H](Cc1ccccc1)NC(=O)[C@H](CC(C)C)NC(=O)CN)[C@@H](C)CC)[C@@H](C)CC)C(=O)N[C@@H](C)C(=O)N[C@@H](CCC(=O)O)C(=O)N[C@@H](CO)C(=O)N[C@@H](C)C(N)=O [Peptide F13A] (H-GLFDIIKKIAESA-NH2) on human red blood cells (RBCs), anyone have it?
Result: 0.3
